compounds and their reported FICI of combination resulting in fluconazole MIC of: 8 ug/mL
system: C. glabrata; experiment: Checkerboard FIC assay in combination with fluconazole (MIC alone and in combination, FICI); assay type: cell-based, Candida glabrata; settings: C. glabrata; FICI calculated using a fluconazole MIC of 16 μg/mL

Would you please look over these solved cases?
COMPOUND	VALUE REPORTED
Cn1cnc(CNC(=O)c2ccc(CCCCc3ccc(CC(=O)NO)cc3)cc2)c1 [Example 23]	0.375
O=C(Cc1ccc(CCCCc2ccc(-c3ccccc3)cc2)cc1)NO [Example 5]	0.280
O=C(Cc1ccc(CCCC(=O)c2ccccc2)cc1)NO [Example 28]	0.313
Nc1ccccc1CCCCc1ccc(CC(=O)NO)cc1 [Example 33]	0.500

With those in mind, consider the next compound.
Qu. Consider the compound O=C(Cc1ccc(CCCC(F)(F)c2ccccc2)cc1)NO [Example 29] and give its measured FICI of combination resulting in fluconazole MIC of: 8 ug/mL.
Ans. 0.500

----------
test system: C. glabrata; assay: Checkerboard FIC assay in combination with fluconazole (MIC alone and in combination, FICI); type: cell-based, Candida glabrata; conditions: in combination with fluconazole, C. glabrata; fluconazole MIC lowered to 4 ug/mL
QUANTITY NAME: Concentration of Methylgene compound to synergize fluconazole MIC to 4 ug/mL

Example compounds with recorded Concentration of Methylgene compound to synergize fluconazole MIC to 4 ug/mL:
COMPOUND STRUCTURE STRING	VALUE REPORTED
O=C(Cc1ccc(CCCCc2ccc(O)c(O)c2)cc1)NO	0.5 µg/mL
O=C(Cc1ccc(CCCCc2ccc(CC(=O)NO)cc2)cc1)NO	0.5 µg/mL
O=C(Cc1ccc(CCCCc2ccc(C(=O)N3CCOCCOCCOCCOCCOCC3)cc2)cc1)NO	4 µg/mL

Now look at this one.
Qu. Look up Concentration of Methylgene compound to synergize fluconazole MIC to 4 ug/mL: "CN(C)CCSCC(=O)Nc1ccc(CCCCc2ccc(CC(=O)NO)cc2)cc1"
Ans. 4 µg/mL

----------
tested on: C. glabrata; assay: Checkerboard FIC assay in combination with fluconazole (MIC alone and in combination, FICI); format: cell-based, Candida glabrata; conditions: C. glabrata; FICI calculated using a fluconazole MIC of 16 μg/mL
QUANTITY NAME: FICI of combination resulting in fluconazole MIC of: 8 ug/mL
Respond using a number only.

# annotated cases, reported FICI of combination resulting in fluconazole MIC of: 8 ug/mL shown
COMPOUND	VALUE REPORTED
COc1ccc(CCCCc2ccc(CC(=O)NO)cc2)cc1	0.620
CC(CCCc1ccc(CC(=O)NO)cc1)c1ccccc1 (stereo not shown)	0.490
O=C(Cc1ccc(CCCCc2ccc(OCCCN3CCOCC3)cc2)cc1)NO	0.625

Qu. Query: FICI of combination resulting in fluconazole MIC of: 8 ug/mL; subject: "Cc1ccc(CCCCc2ccc(CC(=O)NO)cc2)cc1"
Ans. 0.490

Qu. Value lookup for FICI of combination resulting in fluconazole MIC of: 8 ug/mL; key = "O=C(Cc1ccc(CCCCc2ccc(O)c(O)c2)cc1)NO"
Ans. 0.500

Qu. Please look up its FICI of combination resulting in fluconazole MIC of: 8 ug/mL: "CC(=O)Nc1cccc(CCCCc2ccc(CC(=O)NO)cc2)c1"
Ans. 0.375

Qu. Quick one: FICI of combination resulting in fluconazole MIC of: 8 ug/mL for "CN(C)CCSCC(=O)Nc1ccc(CCCCc2ccc(CC(=O)NO)cc2)cc1" ?
Ans. 0.375

Qu. What value of measured FICI of combination resulting in fluconazole MIC of: 8 ug/mL is listed for "O=C(Cc1ccc(CCCCc2ccc(NS(=O)(=O)CCN3CCOCC3)cc2)cc1)NO" ?
Ans. 0.375

Qu. FICI of combination resulting in fluconazole MIC of: 8 ug/mL lookup needed for "O=C(Cc1ccc(CCCCc2cccc(NS(=O)(=O)CCN3CCOCC3)c2)cc1)NO" , thanks.
Ans. 0.375

Cited source: patent US20140081017A1
